PARAMETER_MEASURED: melting point

Use the examples below as a reference point.
COc1ccc(-n2cnc3cc(NCc4cc(OC)c(OC)cc4OC)ccc32)cc1 [Compound 13d]: 167.8 to 169.8 °C
CCOc1ccc(/C=C/c2ccc3c(c2)ncn3-c2ccc(OC(C)C)cc2)cc1 [Compound 7d−E]: 152 to 153 °C
CC(C)Oc1ccc(-n2cnc3cc(/C=C/c4ccc(C(C)(C)C)cc4)ccc32)cc1 [Compound 7a−E]: 161 to 162 °C
CC(C)Oc1ccc(-n2cnc3cc(/C=C/c4ccc(C#N)cc4)ccc32)cc1 [Compound 7b−E]: 161 to 162 °C
COc1ccc(-n2cnc3cc(NCc4cc(OC)c(O)c(OC)c4)ccc32)cc1 [Compound 13e]: 115.7 to 118.1 °C
CC(C)Oc1ccc(-n2cnc3cc(/C=C\c4ccc(OC(F)(F)F)cc4)ccc32)cc1 [Compound 7f−Z]: 161 to 162 °C
CC(C)Oc1ccc(-n2cnc3cc(/C=C/c4ccc5ccccc5c4)ccc32)cc1 [Compound 7h−E]: 172 to 173 °C

Next, consider the following molecule.
For the molecule COc1ccc(-n2cnc3cc(NCc4ccc(Cl)c(Cl)c4)ccc32)cc1 [Compound 13i] , what melting point is on record?
134.1 to 135.8 °C

* * *

Each entry below lists one item and its recorded melting point value.

Use the examples below as a reference point.
CC(C)Oc1ccc(-n2cnc3cc(/C=C/c4ccc(C(F)(F)F)cc4)ccc32)cc1 [Compound 7g−E]: 166 to 167 °C
CCOc1ccc(/C=C\c2ccc3c(c2)ncn3-c2ccc(OC(C)C)cc2)cc1 [Compound 7d−Z]: 161 to 162 °C
CC(C)Oc1ccc(-n2cnc3cc(/C=C/c4ccc(OC(F)(F)F)cc4)ccc32)cc1 [Compound 7f−E]: 160 to 162 °C

Next, consider the following compound.
For the compound COc1ccc(-n2cnc3cc(NCc4cccc(O)c4)ccc32)cc1 [Compound 13h] , what melting point is on record?
182.9 to 184.3 °C

* * *

- MEASUREMENT_TARGET: UniProtKB P08669
- PROTOCOL: biochemical
- Format: binding
PARAMETER_MEASURED: pKd
Keep it numeric: pKd is minus log10 of the concentration in mol/L.

Use the examples below as a reference point.
CCOc1ccc(/C=C\c2ccc3c(c2)ncn3-c2ccc(OC(C)C)cc2)cc1: 6.51
COc1ccc(-n2cnc3cc(NCc4ccc(O)c(OC)c4)ccc32)cc1 [Compound 13b]: 5.41
COc1ccc(-n2cnc3cc(NCc4cccc(O)c4)ccc32)cc1 [Compound 13h]: 4.44
COc1ccc(-n2cnc3cc(NCc4ccc(C(C)C)cc4)ccc32)cc1 [ST−193, reference compound]: 6.70
CC(C)Oc1ccc(-n2cnc3cc(/C=C\c4ccc(C(F)(F)F)cc4)ccc32)cc1: 5.57
CC(C)Oc1ccc(-n2cnc3cc(/C=C\c4ccc5ccccc5c4)ccc32)cc1: 6.89
COc1ccc(-n2cnc3cc(NCc4ccc(C(C)(C)C)cc4)ccc32)cc1 [Compound 13f]: 6.76

For the molecule CC(C)Oc1ccc(-n2cnc3cc(/C=C\c4ccc(C(C)(C)C)cc4)ccc32)cc1 , what pKd is on record?
6.84

* * *

- MEASUREMENT_TARGET: LASV GP2 (Lassa virus)
- Sequence (P08669 260-491 limits assumed): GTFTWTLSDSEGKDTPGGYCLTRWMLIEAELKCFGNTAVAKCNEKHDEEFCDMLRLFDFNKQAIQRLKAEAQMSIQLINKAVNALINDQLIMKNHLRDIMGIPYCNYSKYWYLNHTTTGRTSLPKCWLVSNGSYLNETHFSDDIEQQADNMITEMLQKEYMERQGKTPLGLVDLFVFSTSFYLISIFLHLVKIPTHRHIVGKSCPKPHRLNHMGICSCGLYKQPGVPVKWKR
- PROTOCOL: biochemical
- Format: binding
Binarize Kd at 2000 nM; below is fulfilled, at or above is not fulfilled.

# example entries with known answers
COc1ccc(-n2cnc3cc(NCc4ccc(Cl)c(Cl)c4)ccc32)cc1 [Compound 13i]: not fulfilled
CC(C)Oc1ccc(-n2cnc3cc(/C=C\c4ccc(C#N)cc4)ccc32)cc1: not fulfilled
COc1ccc(-n2cnc3cc(NCc4ccc(C(F)(F)F)cc4)ccc32)cc1 [Compound 13j]: not fulfilled
COc1ccc(-n2cnc3cc(NCc4cc(OC)c(OC)cc4OC)ccc32)cc1 [Compound 13d]: fulfilled
COc1ccc(-n2cnc3cc(NCc4ccc(OC)c(O)c4)ccc32)cc1 [Compound 13a]: not fulfilled
Cc1ccc(/C=C\c2ccc3c(c2)ncn3-c2ccc(OC(C)C)cc2)cc1: fulfilled

Now for a further compound.
# TODO verify Kd < 2000 nM strictly for this compound: CC(C)Oc1ccc(-n2cnc3cc(/C=C\c4ccc(OC(F)(F)F)cc4)ccc32)cc1
not fulfilled
